Target: T1, PUF4 RNA-binding domain (Saccharomyces cerevisiae, UniProt P25339 537-888)
T1 sequence: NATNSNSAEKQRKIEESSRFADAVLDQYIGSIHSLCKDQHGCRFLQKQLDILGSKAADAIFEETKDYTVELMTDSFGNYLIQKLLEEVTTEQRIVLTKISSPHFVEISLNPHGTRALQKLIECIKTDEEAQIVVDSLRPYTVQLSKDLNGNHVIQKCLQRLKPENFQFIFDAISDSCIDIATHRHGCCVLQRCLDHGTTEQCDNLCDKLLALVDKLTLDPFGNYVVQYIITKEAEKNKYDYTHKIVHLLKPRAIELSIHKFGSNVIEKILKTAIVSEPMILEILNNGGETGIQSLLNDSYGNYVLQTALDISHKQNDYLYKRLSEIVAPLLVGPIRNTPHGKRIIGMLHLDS
Test: Mg; RNA-MaP; 20 mM Na-HEPES pH 7.4, 30 mM KOAc, 0.75 mM MgCl2, 0.1% Tween-20, 5% glycerol, 0.1 mg/mL BSA, 2 mM DTT; 25 C; 0.0125-409.6 nM protein
Details: tags: N-His6-TEV cleaved; C-SNAP kept, Cy3B-labelled; label: tethered on chip by stalled RNA polymerase
READOUT_LABEL: Kd (nM)
Give the value, in units of nM, as a plain number.

Solved cases (3 shown):
- Id_ii_S2_P5E.4_K5.3_C5.2_[C-2T]_[T-1A]_H5.3_A5.1_F5.1_T5.2 (ssRNA) RNA: UUUGAUUAAUAUGAUAUCGUUCUUUCUUAACACUUAUUAUAUUCUUUCUCGAUAUCAUAUUAAUCUUU: 790
- Ic_S2_P4E.1_K4.1_C4.1_H4.1_A4.1_[T5G]_[A6C]_[T7C]_F4.1_[T8C]_[A9T]_T4.1 (ssRNA) RNA: UUUGAUUAAUAUGAUAUCGUUCUUUCUUGUAGCCCUUUCUUUCUCGAUAUCAUAUUAAUCUUU: 614
- Ib_S2_P5E.1_K5.1_C5.1_H5.1_[A4C]_A5.1_[T5C]_F5.1_T5.1 (ssRNA) RNA: UUUGAUUAAUAUGAUAUCGUUCUUUCUUGUCCUAUUAUUCUUUCUCGAUAUCAUAUUAAUCUUU: 22.6

Moving on to another binder below.
Exam item: Please report the measured Kd for UCUCUUUGUAUCUCUCUAUUAUCUCUU (ssRNA) [Ie_S1_P5E.1_K5.1_C5.1_H5.1_A5.1_[+5CTCTC]_F5.1_T5.1]
Marked response: 36

Entry source: paper PMC9352680
